Reported selectivity ratio values for a set of molecules
# test: Selectivity index, ratio of CC50 for MDCK cells to EC50 for influenza virus H9N2 A/Chicken/Korea/MS96/96
# Assay type: toxicity, cell-based
# stated.conditions: dog, read-out: Ratio CC50/EC50
measured.parameter: selectivity ratio

>>> experimental_value("O=c1c(O)c(-c2ccc(O)c(O)c2)oc2c(O)c(O)cc(O)c12 [GOSSYPETIN]")
7.8
>>> experimental_value("C[C@@H]1O[C@@H](Oc2cc(O)c3c(=O)c(O)c(-c4ccc(O)cc4)oc3c2O)[C@H](O)[C@H](O[C@@H]2O[C@H](CO)[C@@H](O)[C@H](O)[C@H]2O)[C@H]1O [RHODIOSIN]")
8.47
>>> experimental_value("O=c1c(O)c(-c2ccc(O)c(O)c2)oc2cc(O)cc(O)c12 [QUERCETIN]")
1.9
>>> experimental_value("O=c1c(O)c(-c2ccc(O)cc2)oc2c(O)c(O)cc(O)c12 [HERBACETIN]")
12.8
>>> experimental_value("O=c1cc(-c2ccc(O)c(O)c2)oc2cc(O)cc(O)c12 [LUTEOLIN]")
1.6

====

# tested.system: UniProt:B4URF0
# test: Noncompetitive inhibition of recombinant influenza A virus rvH1N1 A/Bervig_Mission/1/18 neuraminidase
measured.parameter: log10 of IC50 (log10 of the value in µM)

>>> experimental_value("O=c1c(O)c(-c2ccc(O)c(O)c2)oc2c(O)c(O)cc(O)c12 [GOSSYPETIN]")
0.41
>>> experimental_value("O=c1c(O)c(-c2ccc(O)cc2)oc2c(O)c(O)cc(O)c12 [HERBACETIN]")
0.95
>>> experimental_value("O=c1c(O[C@@H]2O[C@H](CO)[C@@H](O)[C@H](O)[C@H]2O)c(-c2ccc(O)cc2)oc2c(O[C@@H]3O[C@H](CO)[C@@H](O)[C@H](O)[C@H]3O)c(O)cc(O)c12 [LINOCINAMARIN]")
1.65
>>> experimental_value("C[C@@H]1O[C@@H](OC[C@H]2O[C@@H](Oc3c(-c4ccc(O)cc4)oc4cc(O)cc(O)c4c3=O)[C@H](O)[C@@H](O)[C@@H]2O)[C@H](O)[C@H](O)[C@H]1O [NICOTIFLOROSIDE]")
1.50
>>> experimental_value("O=c1c(O)c(-c2ccc(O)cc2)oc2cc(O)cc(O)c12 [KAEMPFEROL]")
1.05
>>> experimental_value("C[C@@H]1O[C@@H](Oc2cc(O)c3c(=O)c(O)c(-c4ccc(O)cc4)oc3c2O)[C@H](O)[C@H](O[C@@H]2O[C@H](CO)[C@@H](O)[C@H](O)[C@H]2O)[C@H]1O [RHODIOSIN]")
1.75
>>> experimental_value("O=c1cc(-c2ccc(O)cc2)oc2cc(O)cc(O)c12 [APIGENIN]")
1.52

====

# test: Selectivity index, ratio of CC50 for MDCK cells to EC50 for influenza virus H1N1 A/PR/8/34
# Format: toxicity, cell-based
# stated.conditions: dog, read-out: Ratio CC50/EC50
Reported selectivity ratio values for a set of compounds
measured.parameter: selectivity ratio

>>> experimental_value("C[C@@H]1O[C@@H](Oc2cc(O)c3c(=O)c(O)c(-c4ccc(O)cc4)oc3c2O)[C@H](O)[C@H](O[C@@H]2O[C@H](CO)[C@@H](O)[C@H](O)[C@H]2O)[C@H]1O")
3.63
>>> experimental_value("O=c1c(O)c(-c2ccc(O)cc2)oc2c(O)c(O)cc(O)c12")
8.39
>>> experimental_value("O=c1c(O)c(-c2ccc(O)c(O)c2)oc2cc(O)cc(O)c12")
5.89
